The measurements presented in this section are drawn from PubChem BioAssay AID1851.

# Tested Target: Cytochrome P450 3A4 (Homo sapiens) (UniProt P08684)
# Sequence (P08684 whole entry, looked up): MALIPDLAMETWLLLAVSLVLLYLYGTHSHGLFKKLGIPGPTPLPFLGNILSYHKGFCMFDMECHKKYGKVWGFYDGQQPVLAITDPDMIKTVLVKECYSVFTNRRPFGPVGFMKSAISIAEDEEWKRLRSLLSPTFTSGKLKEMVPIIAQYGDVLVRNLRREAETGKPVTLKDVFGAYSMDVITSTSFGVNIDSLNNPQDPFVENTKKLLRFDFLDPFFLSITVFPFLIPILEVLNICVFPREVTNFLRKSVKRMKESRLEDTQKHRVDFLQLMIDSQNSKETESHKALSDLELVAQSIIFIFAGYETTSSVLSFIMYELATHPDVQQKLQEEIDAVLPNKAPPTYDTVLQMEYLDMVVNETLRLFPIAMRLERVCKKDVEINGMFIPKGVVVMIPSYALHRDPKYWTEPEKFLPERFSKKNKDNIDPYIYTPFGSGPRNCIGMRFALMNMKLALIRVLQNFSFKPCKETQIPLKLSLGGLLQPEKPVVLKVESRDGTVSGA
# Experiment Summary: Cytochrome panel assay with activity outcomes; also: % is scaled to controls: 0 for no effect and ±100 for the full control effect
# Condition Label: recombinant CYP, pro-luciferin dealkylation, luminescence, p450-cyp3a4; series mostly up to 57.1 µM
Screen size: about 16,000 compounds; about 5,100 (32%) were called active. Another 25% or so got no clear call; they are omitted. This is one part of the list.
What activity, negative = inhibition was measured for each of the following?

Lab note: "COC(=O)/C=C\CCc1coc(/C=C\CNC(=O)OC)n1" gave activity, negative = inhibition of -19.3% [at 11.4 µM] (inactive)

// "OC[C@@H]1O[C@@H](n2cnc3c(SCc4ccccc4)ncnc32)[C@@H](O)[C@H]1O" : activity, negative = inhibition value = 7.88% [at 11.4 µM] (inactive)

# activity, negative = inhibition of "CCN1CCCCC(=N/O)/C(=N/O)CCCC1" = -9.74% [at 11.4 µM] (inactive)

activity, negative = inhibition recorded for this molecule, "CN(CCO)Cc1ncccc1O" , is -9.73% [at 11.4 µM] (inactive)

Query "CCCSc1nnc(CSc2nc3nc(C)cc(C)n3n2)o1" yields activity, negative = inhibition of 5.19% [at 11.4 µM] (inactive)

The recorded activity, negative = inhibition for "COc1cc2c(C(=O)NCc3ccc(C)o3)cn(CC(C)C)c(=O)c2cc1OC" is -15.9% [at 2.29 µM] (inactive)

CC(C)CCOc1ccc(NC(=O)C2OC3OC(C)(C)OC3C3OC(C)(C)OC23)cc1 (configuration not stated) has a reported activity, negative = inhibition of -3.7% [at 2.29 µM] (inactive)

// activity, negative = inhibition value for "N=C(N)[C@H](N=Nc1ccccc1)C(N)=O" : -11.5% [at 11.4 µM] (inactive)

For COc1ccc(C(O)c2nccn2Cc2ccccc2)cc1 (configuration not stated) the molecule record lists activity, negative = inhibition as -29.5% [at 11.4 µM] (inactive)

Lab note: measured activity, negative = inhibition of CC1CC(C)CN(C(=O)CSc2nnc(CSc3ncccn3)n2C)C1 (configuration not stated) was 3.75% [at 2.29 µM] (inactive)

activity, negative = inhibition measured on O=C1CC(c2ccc3c(c2)OCO3)CN1 (configuration not stated) = -2.08% [at 2.29 µM] (inactive)

Quick note, activity, negative = inhibition for "O=C(O)c1c2c(c(O)c3c1CN(C1CCCCC1)CO3)OCN(C1CCCCC1)C2" landed at -0.201% [at 11.4 µM] (inactive)
